# system-under-test: Cytochrome P450 2D6 (Homo sapiens) (UniProt P10635)
# Sequence (P10635 whole entry, looked up): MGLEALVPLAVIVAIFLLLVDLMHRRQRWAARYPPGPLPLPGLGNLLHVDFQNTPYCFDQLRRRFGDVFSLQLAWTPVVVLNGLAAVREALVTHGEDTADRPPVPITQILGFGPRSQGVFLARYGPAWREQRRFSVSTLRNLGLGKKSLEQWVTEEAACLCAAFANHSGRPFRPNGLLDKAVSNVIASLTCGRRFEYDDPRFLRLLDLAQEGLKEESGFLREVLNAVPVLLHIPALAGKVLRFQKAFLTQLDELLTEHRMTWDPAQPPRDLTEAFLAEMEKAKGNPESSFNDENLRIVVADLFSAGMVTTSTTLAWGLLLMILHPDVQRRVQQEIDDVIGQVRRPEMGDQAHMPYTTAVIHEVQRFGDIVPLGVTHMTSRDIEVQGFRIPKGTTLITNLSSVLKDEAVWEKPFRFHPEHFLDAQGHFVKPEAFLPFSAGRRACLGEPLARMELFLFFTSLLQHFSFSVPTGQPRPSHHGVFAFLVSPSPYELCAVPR
# assay-remarks: Cytochrome panel assay with activity outcomes
# assay-context: recombinant CYP, pro-luciferin dealkylation, luminescence, p450-cyp2d6; series mostly up to 57.1 µM
# Protocol: The P450 gene superfamily is involved in the metabolism and clearance of xenobiotics. This assay used various human CYP P450 isozymes to measure the dealkylation of various pro-luciferin substrates to luciferin. The luciferin is then measured by luminescence after the addition of a luciferase detection reagent. […] Inhibitors and some substrates limit the production of luciferin, and decrease measured luminescence. […] 8, Detection, 1 sec, ViewLux luminescent read […]
Among all 16,000 compounds or so, about 2,600 (16%) were called active. Inconclusive results (about 20%) are left out. Calls follow the shape of the dose curve; as a rule, active = well fitted curve in the direction sought with a large enough effect; inconclusive = small, poorly fitted or top-dose-only effect, or effect the other way; inactive = no such curve, though single readings can be large or run the other way. The list is a sample of the results.
Log the outcome using a class from 1 for active, 0 for inactive

# input Which result was noted for this compound in the test: O=C(NCCOC12CC3CC(CC(C3)C1)C2)c1cccc(Br)c1
# output 0

# input Which result was noted for this compound in the test: Cc1nc2c([nH]1)c(=O)n(C)c(=O)n2Cc1ccco1
# output 0

# input Which result was noted for this compound in the test: Cc1ccc(NC(=O)C(C)N2C(=O)C3C4CC(C(Br)C4Br)C3C2=O)cc1 (stereo unspecified)
# output 0

# input Which result was noted for this compound in the test: CC(=O)Nc1ccc(NC2=Nc3ccccc3N3C2=Nc2c(c(C)nn2-c2ccccc2)C3c2ccccc2)cc1 (stereo unspecified)
# output 0

# input Which result was noted for this compound in the test: Nc1c(S(=O)(=O)c2ccccc2)c2nc3ccccc3nc2n1Cc1ccco1
# output 1

# input Which result was noted for this compound in the test: O=C1C2ON(c3ccccc3)C(c3ccncc3)C2C(=O)N1c1ccccc1 (stereo unspecified)
# output 0
